Test system: biotinyl-Val-oxazolone
Assay: self-aminoacylation, catalytic enhancement (BVO) (fold over background); higher = more active; k-Seq, kA / k0A0; sequences stand for … in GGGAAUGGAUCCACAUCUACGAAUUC…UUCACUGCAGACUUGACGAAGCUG
Fewer inactive variants are shown than the library holds.
Observed property: self-aminoacylation
One number for each entry.

Dear reader, for each entry below, please note its self-aminoacylation.
1. AUUACCCUGGUCAUACAGUGA [Fam2.1 aminoacylation ribozyme variant]
2. UUUCACCUAAGUCAUCGGGUG [Fam2.2 aminoacylation ribozyme variant]
3. AUUGCCAUGGUCAUCGAGUGA [Fam2.1 aminoacylation ribozyme variant]
4. AUUAGCCUGGUCAUCUAGUGA [Fam2.1 aminoacylation ribozyme variant]
5. AUUACCCUGGUCAUAGCGUGA [Fam2.1 aminoacylation ribozyme variant]
6. CUACUUCAAACAAUCAGGCUG [Fam1A.1 aminoacylation ribozyme variant]

3.03
5.74
4.81
2.98
4.99
0.723

For every item below, please supply its self-aminoacylation.
1. AUUACCGUGGUCAUCUAGUGA [Fam2.1 aminoacylation ribozyme variant]
2. AUUUACCUAGGUCAUCGGGUA [Fam2.2 aminoacylation ribozyme variant]

1. 3.82
2. 12.3

###

System: biotinyl-Ile-oxazolone
Experiment: self-aminoacylation, catalytic enhancement (BIO) (fold over background); higher = more active; k-Seq, kA / k0A0; sequences stand for … in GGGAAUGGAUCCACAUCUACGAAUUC…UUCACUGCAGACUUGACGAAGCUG
This sample holds only a part of the variants without activity.
Observed property: self-aminoacylation
Numbers only.

INSERT INTO measurements (query_sequence, observed_property, number) VALUES
  ('AUUACUCUGGUCGUCGAGUGA [Fam2.1 aminoacylation ribozyme variant]', 'self-aminoacylation', 1.08),
  ('AUUACCCUGGACAUCGAUUGA [Fam2.1 aminoacylation ribozyme variant]', 'self-aminoacylation', 0.804),
  ('CCACGCUUCAACCAAUCGGUC [Fam1B.1 aminoacylation ribozyme variant]', 'self-aminoacylation', 1.16),
  ('CCACACUUCAAGCAAUCCCUC [Fam1B.1 aminoacylation ribozyme variant]', 'self-aminoacylation', 1.04),
  ('CUCCUUCAAACGAUCGGUCUG [Fam1A.1 aminoacylation ribozyme variant]', 'self-aminoacylation', 0.833),
  ('AUUCACCUAGGUUAUCGAGUG [Fam2.2 aminoacylation ribozyme variant]', 'self-aminoacylation', 1.4),
  ('AAGUUUGCUAAUAGUCGUCAG [Fam3.1 aminoacylation ribozyme variant]', 'self-aminoacylation', 0.795),
  ('CUGCUUCAAACAAUCGGUCCG [Fam1A.1 aminoacylation ribozyme variant]', 'self-aminoacylation', 1.35);

Field: self-aminoacylation. Fill in for each record below.
1. AAGUUUGCUGAUAGGCGCAAG [Fam3.1 aminoacylation ribozyme variant]
2. CCACACAACAAGCAAUCGGUC [Fam1B.1 aminoacylation ribozyme variant]
3. CCACACCUUAAGCAAUCGGUC [Fam1B.1 aminoacylation ribozyme variant]
4. CCACACGUCAAGCGAUCGGUC [Fam1B.1 aminoacylation ribozyme variant]

0.732
0.894
1.16
1.21

###

System: biotinyl-Met-oxazolone
Assay: self-aminoacylation, catalytic enhancement (BMO) (fold over background); higher = more active; k-Seq, kA / k0A0; sequences stand for … in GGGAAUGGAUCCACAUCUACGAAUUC…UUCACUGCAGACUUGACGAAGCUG
Variants at the floor of the assay were thinned out.
# cutoff 1 applies to self-aminoacylation; >= gives yes (1), < gives no (0)

Solved entries:
INSERT INTO assay_data (query_sequence, category_label) VALUES
  ('CCACAAUUCAAGCAAUCUGUC [Fam1B.1 aminoacylation ribozyme variant]', 'no (0)'),
  ('GUUCACCUAGGUAAUCGGGUG [Fam2.2 aminoacylation ribozyme variant]', 'yes (1)'),
  ('UUUCACCUAGGUCAGCGGGUG [Fam2.2 aminoacylation ribozyme variant]', 'yes (1)'),
  ('AGUCACCUAGGUAAUCGGGUG [Fam2.2 aminoacylation ribozyme variant]', 'yes (1)'),
  ('CCACACUUCAAGCAAUCGCUG [Fam1B.1 aminoacylation ribozyme variant]', 'yes (1)'),
  ('CCACACUUAAAGCAAUCUGUC [Fam1B.1 aminoacylation ribozyme variant]', 'no (0)'),
  ('AUUCACCUAUUUCAUCGGGUG [Fam2.2 aminoacylation ribozyme variant]', 'yes (1)'),
  ('CCCCACUUCAAGCAAUCGUUC [Fam1B.1 aminoacylation ribozyme variant]', 'no (0)'),
  ('CUAGUUCAAACAAUCGGUCUU [Fam1A.1 aminoacylation ribozyme variant]', 'yes (1)'),
  ('AUUAUCCUAGUCAUCGAGUGA [Fam2.1 aminoacylation ribozyme variant]', 'yes (1)');

Entry AUUAUCCUGGUCAUAGAGUGA [Fam2.1 aminoacylation ribozyme variant] : is its self-aminoacylation no less than 1?
yes (1)

In plain terms: is recorded self-aminoacylation at least 1 for CUACUUCACACAAUCGGUCUG [Fam1A.1 aminoacylation ribozyme variant] ?
no (0)

###

Test system: biotinyl-Met-oxazolone
Test: self-aminoacylation, catalytic enhancement (BMO) (fold over background); higher = more active; k-Seq, kA / k0A0; sequences stand for … in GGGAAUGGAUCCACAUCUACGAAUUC…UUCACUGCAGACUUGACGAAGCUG
This sample holds only a part of the variants without activity.
Each record gets a class by self-aminoacylation: class A = under 0.9, class B = from 0.9 up to 2, class C = 2 and over

Use these answered entries as a reference point.
INSERT INTO assay_data (query_sequence, study_target, category_label) VALUES
  ('AAGUUUGCUAAUUGUGGCAAG [Fam3.1 aminoacylation ribozyme variant]', 'biotinyl-Met-oxazolone', 'class A'),
  ('CCACACUUCAAGGAAUCGGUA [Fam1B.1 aminoacylation ribozyme variant]', 'biotinyl-Met-oxazolone', 'class B'),
  ('AUUCACCUAGGUCAUCGAGUU [Fam2.2 aminoacylation ribozyme variant]', 'biotinyl-Met-oxazolone', 'class C'),
  ('AUUACCCUGGACAUCGAUUGA [Fam2.1 aminoacylation ribozyme variant]', 'biotinyl-Met-oxazolone', 'class A'),
  ('AAGUUUGCUAAUAGACGGAAG [Fam3.1 aminoacylation ribozyme variant]', 'biotinyl-Met-oxazolone', 'class A'),
  ('AUCCACCUAGGUCAUCGGGGG [Fam2.2 aminoacylation ribozyme variant]', 'biotinyl-Met-oxazolone', 'class C');

Kindly identify the class of CCUAACUUCAAGCAAUCGGUC [Fam1B.1 aminoacylation ribozyme variant] .
class B

Please let me know in which category the item GUUCACCUAGGUCAUCGGCUG [Fam2.2 aminoacylation ribozyme variant] belongs.
class B

Class? Entry: CUCCUUCAAACUAUCGGUCUG [Fam1A.1 aminoacylation ribozyme variant]
class B

Bin? CCCCACUUCAAGCAAUCGGUG [Fam1B.1 aminoacylation ribozyme variant]
class C

Hello team, could you let me know which band the following sequence falls into: CCAGACUUCAAGCAAUCGGUA [Fam1B.1 aminoacylation ribozyme variant]
class B

###

I'd be grateful if you could share measured self-aminoacylation for these entries.
Tested on: biotinyl-Trp-oxazolone
Test: self-aminoacylation, catalytic enhancement (BWO) (fold over background); higher = more active; k-Seq, kA / k0A0; sequences stand for … in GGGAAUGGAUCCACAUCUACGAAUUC…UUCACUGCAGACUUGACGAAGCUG
This sample holds only a part of the variants without activity.
Numbers only.

Sample records with self-aminoacylation:
INSERT INTO assay_data (query_sequence, observed_property, number) VALUES
  ('AAGCUUGCUAAUACUCGCAAG [Fam3.1 aminoacylation ribozyme variant]', 'self-aminoacylation', 1.98),
  ('GUACUUCAAACAACCGGUCUG [Fam1A.1 aminoacylation ribozyme variant]', 'self-aminoacylation', 2.02);

Entry AAGUUUGCUAAUAGUCUCGAG [Fam3.1 aminoacylation ribozyme variant] has what self-aminoacylation?
1.96

###

System: biotinyl-Trp-oxazolone
Test: self-aminoacylation, catalytic enhancement (BWO) (fold over background); higher = more active; k-Seq, kA / k0A0; sequences stand for … in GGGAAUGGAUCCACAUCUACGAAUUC…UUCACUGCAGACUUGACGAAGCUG
Variants at the floor of the assay were thinned out.
# label = bin(measured self-aminoacylation), where bins are bottom range (below 0.7), center range (0.7 to below 2), top range (2 or more)

INSERT INTO results (query_sequence, category_label) VALUES
  ('AAGUUUGAUAAUAGUAGCAAG [Fam3.1 aminoacylation ribozyme variant]', 'bottom range'),
  ('CCCCACUUCACGCAAUCGGUC [Fam1B.1 aminoacylation ribozyme variant]', 'top range'),
  ('CCACACGUCAAGCAAUCGUUC [Fam1B.1 aminoacylation ribozyme variant]', 'center range'),
  ('CUACUUCAAACAAUCAGUAUG [Fam1A.1 aminoacylation ribozyme variant]', 'top range'),
  ('GUACUUCAAACUAUCGGUCUG [Fam1A.1 aminoacylation ribozyme variant]', 'center range');

# classify by self-aminoacylation band: CGACUUCUAACAAUCGGUCUG [Fam1A.1 aminoacylation ribozyme variant]
bottom range

Would you mind sorting AUUACCCUGUUCAUCGAGUUA [Fam2.1 aminoacylation ribozyme variant] into the appropriate category?
bottom range

The entry to classify is AAGUUUUCUAAUAGUCGCAGG [Fam3.1 aminoacylation ribozyme variant] ; which class holds it?
top range
